assay: Pharmacokinetic profiling in mouse (i.v. and i.g.); type: in vivo, male ICR mice; settings: male, ICR, plasma, po, i.g. 30 mg/kg
Please respond with reported half-life for every item in the list.
Express your answer in h, writing the number without its unit.

// lookup half-life for [2H]C([2H])([2H])c1cc2cnc(NC3CCN(S(C)(=O)=O)CC3)nc2n([C@@H]2CCC[C@@]2(C)O)c1=O [Comp. 37]
1.72

Which value of half-life has been reported for Cc1cc2cnc(NC3CCN(S(C)(=O)=O)CC3)nc2n([C@@H]2CCC[C@@]2(C)O)c1=O [Comp. 4, reference compound] in the records?
2.24

Would you mind telling me what half-life value was observed for C[C@@]1(O)CCC[C@H]1n1c(=O)c(C(F)F)cc2cnc(NC3CCN(S(C)(=O)=O)CC3)nc21 [Comp. 5, reference compound] ?
2.76

====

assay: Pharmacokinetic profiling in mouse (i.v. and i.g.); assay type: in vivo, male ICR mice; conditions: male, ICR, plasma, iv, i.v. 5 mg/kg, read-out: Vdss
Task for the reader: assign each of the following compounds its reported Vd.
The reply should be a number in L/kg, with the unit left off.

Sample C[C@@]1(O)CCC[C@H]1n1c(=O)c(C(F)F)cc2cnc(NC3CCN(S(C)(=O)=O)CC3)nc21 [Comp. 5, reference compound] — what was its Vd?
1

// Vd lookup, key: Cc1cc2cnc(NC3CCN(S(C)(=O)=O)CC3)nc2n([C@@H]2CCC[C@@]2(C)O)c1=O [Comp. 4, reference compound]
0.611

Consider the compound shown here: [2H]C([2H])([2H])c1cc2cnc(NC3CCN(S(C)(=O)=O)CC3)nc2n([C@@H]2CCC[C@@]2(C)O)c1=O [Comp. 37] What is its recorded Vd?
0.703

====

tested on: HCC1806 s.c. xenografts; assay: HCC1806 s.c. breast cancer xenograft efficacy (tumor volume, relative tumor volume, tumor weight, TGI); type: in vivo, BALB/c nude mice; details: 30 mg/kg P.O. BID, vs control vehicle, day 10
experimental-readout: Tumor Growth Inhibition D10

Lab note: need Tumor Growth Inhibition D10 with HCC1806 s.c. xenografts for entry C[C@@]1(O)CCC[C@H]1n1c(=O)c(C(F)F)cc2cnc(NC3CCN(S(C)(=O)=O)CC3)nc21 [Comp. 5, reference compound] , please look it up.
39.66%

Quick check: Tumor Growth Inhibition D10 on HCC1806 s.c. xenografts, item `[2H]C([2H])([2H])c1cc2cnc(NC3([2H])C([2H])([2H])CN(S(=O)(=O)C([2H])([2H])[2H])CC3([2H])[2H])nc2n([C@@H]2CCC[C@@]2(C)O)c1=O` ?
34.46%

Observed Tumor Growth Inhibition D10 on HCC1806 s.c. xenografts for Cc1cc2cnc(NC3CCN(S(C)(=O)=O)CC3)nc2n([C@@H]2CCC[C@@]2(C)O)c1=O [Comp. 4, reference compound] , please.
−1.66%

Record `[2H]C([2H])([2H])c1cc2cnc(NC3CCN(S(C)(=O)=O)CC3)nc2n([C@@H]2CCC[C@@]2(C)O)c1=O` : what is its Tumor Growth Inhibition D10 with HCC1806 s.c. xenografts?
46.10%

For the record `[2H]C(F)(F)c1cc2cnc(NC3CCN(S(C)(=O)=O)CC3)nc2n([C@@H]2CCC[C@@]2(C)O)c1=O` , what value of Tumor Growth Inhibition D10 is listed for HCC1806 s.c. xenografts?
15.19%

Test system HCC1806 s.c. xenografts; read-out Tumor Growth Inhibition D10; what value for `[2H]C([2H])([2H])c1cc2cnc(NC3([2H])C([2H])([2H])CN(S(C)(=O)=O)CC3([2H])[2H])nc2n([C@@H]2CCC[C@@]2(C)O)c1=O` ?
21.94%

====

experiment: Body weight in the HCC1806 xenograft study; format: in vivo, BALB/c nude mice; conditions: group mean, 30 mg/kg P.O. BID, day 17
experimental-readout: Body weight D17
Could you kindly put the unit after your number?

I would be grateful if you could share the reported Body weight D17 for `[2H]C([2H])([2H])c1cc2cnc(NC3([2H])C([2H])([2H])CN(S(C)(=O)=O)CC3([2H])[2H])nc2n([C@@H]2CCC[C@@]2(C)O)c1=O` .
18.20 g

Entry under review: `[2H]C([2H])([2H])c1cc2cnc(NC3([2H])C([2H])([2H])CN(S(=O)(=O)C([2H])([2H])[2H])CC3([2H])[2H])nc2n([C@@H]2CCC[C@@]2(C)O)c1=O` . Reported Body weight D17?
18.66 g

I am curious: what Body weight D17 value has been reported for Cc1cc2cnc(NC3CCN(S(C)(=O)=O)CC3)nc2n([C@@H]2CCC[C@@]2(C)O)c1=O [Comp. 4, reference compound] ?
20.49 g

State the recorded Body weight D17 for this entry: C[C@@]1(O)CCC[C@H]1n1c(=O)c(C(F)F)cc2cnc(NC3CCN(S(C)(=O)=O)CC3)nc21 [Comp. 5, reference compound]
18.48 g

What Body weight D17 value was documented for this molecule, `[2H]C(F)(F)c1cc2cnc(NC3CCN(S(C)(=O)=O)CC3)nc2n([C@@H]2CCC[C@@]2(C)O)c1=O` ?
17.84 g

Param item = `[2H]C([2H])([2H])c1cc2cnc(NC3CCN(S(C)(=O)=O)CC3)nc2n([C@@H]2CCC[C@@]2(C)O)c1=O` ; retrieve measured Body weight D17.
18.60 g

====

test: Body weight in the HCC1806 xenograft study; format: in vivo, BALB/c nude mice; settings: group mean, 30 mg/kg P.O. BID, day 7
For each record, write down the corresponding Body weight D7.
Respond with the bare value in g.

Which Body weight D7 value belongs to [2H]C([2H])([2H])c1cc2cnc(NC3CCN(S(C)(=O)=O)CC3)nc2n([C@@H]2CCC[C@@]2(C)O)c1=O [Comp. 37] ?
18.10

Any idea what Body weight D7 was measured for Cc1cc2cnc(NC3CCN(S(C)(=O)=O)CC3)nc2n([C@@H]2CCC[C@@]2(C)O)c1=O [Comp. 4, reference compound] ?
18.56

Param item = [2H]C(F)(F)c1cc2cnc(NC3CCN(S(C)(=O)=O)CC3)nc2n([C@@H]2CCC[C@@]2(C)O)c1=O [Comp. 28] ; retrieve measured Body weight D7.
17.78

====

molecular target: CDK9/Cyclin T1 (Homo sapiens); assay: CDK9/Cyclin T1 kinase assay
Sequence (P50750 whole entry): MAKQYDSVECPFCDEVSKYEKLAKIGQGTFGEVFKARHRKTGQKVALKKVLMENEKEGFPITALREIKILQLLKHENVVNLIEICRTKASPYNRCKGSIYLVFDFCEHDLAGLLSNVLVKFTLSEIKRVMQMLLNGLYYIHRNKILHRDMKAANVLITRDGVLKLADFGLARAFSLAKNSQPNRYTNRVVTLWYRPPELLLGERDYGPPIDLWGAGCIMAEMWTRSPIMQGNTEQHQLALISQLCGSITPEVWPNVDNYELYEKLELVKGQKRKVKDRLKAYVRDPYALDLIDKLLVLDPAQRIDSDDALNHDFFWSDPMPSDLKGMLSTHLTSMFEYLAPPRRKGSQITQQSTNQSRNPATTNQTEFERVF
Sequence (O60563 whole entry partner): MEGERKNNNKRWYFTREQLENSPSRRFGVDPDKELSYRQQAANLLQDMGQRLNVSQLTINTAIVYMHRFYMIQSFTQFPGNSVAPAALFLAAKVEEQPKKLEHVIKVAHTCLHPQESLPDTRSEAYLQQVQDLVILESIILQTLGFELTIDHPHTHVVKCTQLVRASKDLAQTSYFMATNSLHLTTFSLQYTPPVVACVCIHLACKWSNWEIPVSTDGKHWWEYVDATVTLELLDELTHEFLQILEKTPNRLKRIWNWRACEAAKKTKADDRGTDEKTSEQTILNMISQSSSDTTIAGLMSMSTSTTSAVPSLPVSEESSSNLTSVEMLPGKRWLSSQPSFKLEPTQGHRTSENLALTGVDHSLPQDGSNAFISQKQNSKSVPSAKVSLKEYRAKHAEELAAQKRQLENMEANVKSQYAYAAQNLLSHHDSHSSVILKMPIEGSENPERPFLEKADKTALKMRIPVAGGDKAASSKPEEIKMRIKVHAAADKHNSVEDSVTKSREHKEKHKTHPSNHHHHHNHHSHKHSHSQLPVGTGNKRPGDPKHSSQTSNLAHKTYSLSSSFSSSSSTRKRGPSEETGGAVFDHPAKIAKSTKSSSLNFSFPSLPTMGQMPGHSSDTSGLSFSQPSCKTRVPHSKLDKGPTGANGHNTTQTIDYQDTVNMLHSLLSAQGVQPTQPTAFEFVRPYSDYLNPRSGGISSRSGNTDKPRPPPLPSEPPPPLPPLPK
experimental-readout: IC50 (µM)
Report the value in µM with no unit label.

// query IC50 value for entry C[C@@]1(O)CCC[C@H]1n1c(=O)ccc2cnc(NC3CCN(S(C)(=O)=O)CC3)nc21 [Comp. 6, reference compound]
6.45

// returns reported IC50 for input C[C@@]1(O)CCC[C@H]1n1c(=O)c(C(F)F)cc2cnc(NC3CCN(S(C)(=O)=O)CC3)nc21 [Comp. 5, reference compound]
3.44

Returns the measured IC50 for the input compound. Input: [2H]C(F)(F)c1cc2cnc(NC3CCN(S(C)(=O)=O)CC3)nc2n([C@@H]2CCC[C@@]2(C)O)c1=O [Comp. 28]
3.64

Given [2H]C(F)(F)c1cc2cnc(NC3CCN(S(C)(=O)=O)CC3)nc2n(C2CCCC2(C)O)c1=O (racemic) [Comp. 20] , state its recorded IC50.
6

====

Test: Body weight in the HCC1806 xenograft study
Type: in vivo, BALB/c nude mice
Conditions: group mean, 30 mg/kg P.O. BID, day 0
Method: When the average tumor volume reached 80-120 mm^3, 42 tumor-bearing mice were randomized into 7 groups (6 mice per group) according to tumor volume. The grouping day was defined as Day 0. Treatment was applied immediately after grouping animals on the same day. The body weight of the testing animals were measured twice a week after grouping. Tumor volumes by the length and width of the tumor were measured by electric calipers and the tumor volume (V) was calculated as follows: V=(length×width^2)/2. […]
experimental-readout: Body weight D0 (g)
The figure you give is taken to be in g; do not add the unit.

Quick one: Body weight D0 of [2H]C([2H])([2H])c1cc2cnc(NC3([2H])C([2H])([2H])CN(S(=O)(=O)C([2H])([2H])[2H])CC3([2H])[2H])nc2n([C@@H]2CCC[C@@]2(C)O)c1=O [Comp. 163] ?
17.54

Which Body weight D0 is reported for this molecule? [2H]C(F)(F)c1cc2cnc(NC3CCN(S(C)(=O)=O)CC3)nc2n([C@@H]2CCC[C@@]2(C)O)c1=O [Comp. 28]
17.93

State the recorded Body weight D0 for this entry: Cc1cc2cnc(NC3CCN(S(C)(=O)=O)CC3)nc2n([C@@H]2CCC[C@@]2(C)O)c1=O [Comp. 4, reference compound]
18.11

====

assay: in vitro; conditions: mouse, microsomes, pH 7.4, t1/2 mouse
experimental-readout: half-life at 1 μM (min)
Please respond with the number in min and leave the unit unwritten.

I am curious: what half-life at 1 μM value has been reported for C[C@@]1(O)CCC[C@H]1n1c(=O)c(C(F)F)cc2cnc(NC3CCN(S(C)(=O)=O)CC3)nc21 [Comp. 5, reference compound] ?
22

half-life at 1 μM lookup needed for `[2H]C([2H])([2H])c1cc2cnc(NC3CCN(S(C)(=O)=O)CC3)nc2n([C@@H]2CCC[C@@]2(C)O)c1=O` , thanks.
72

Quick check: half-life at 1 μM of `[2H]C(F)(F)c1cc2cnc(NC3CCN(S(C)(=O)=O)CC3)nc2n([C@@H]2CCC[C@@]2(C)O)c1=O` ?
182

Which half-life at 1 μM is listed for Cc1cc2cnc(NC3CCN(S(C)(=O)=O)CC3)nc2n([C@@H]2CCC[C@@]2(C)O)c1=O [Comp. 4, reference compound] ?
16.5

Using the record for `[2H]C1([2H])CN(S(C)(=O)=O)CC([2H])([2H])C1Nc1ncc2ccc(=O)n([C@@H]3CCC[C@@]3(C)O)c2n1` , report its half-life at 1 μM.
23.5

I'd like to know its half-life at 1 μM. The molecule in question is `[2H]C1(Nc2ncc3ccc(=O)n([C@@H]4CCC[C@@]4(C)O)c3n2)CCN(S(C)(=O)=O)CC1`
24.5

What half-life at 1 μM value was documented for this molecule, C[C@@]1(O)CCC[C@H]1n1c(=O)ccc2cnc(NC3CCN(S(C)(=O)=O)CC3)nc21 [Comp. 6, reference compound] ?
24.2

Origin of the recorded values: patent US20230242526A1
